Where do the numbers come from? From PubChem BioAssay (Tox21).

assay: qHTS assay for identifying genotoxic compounds that show differential cytotoxicity against isogenic chicken DT40 cell lines with known DNA damage response pathways - Rad54/Ku70 mutant cell line (AID 743015); conditions: DT40 Rad54/Ku70 mutant viability, CellTiter-Glo, 40 h; series mostly up to 66.8 µM; also: nearly all actives have a fitted effect of over 60% in size; also: potency is read from the fitted curve at half-maximal effect
Records with an inconclusive call do not appear. Active and inactive are the calls of the source. Calls follow the shape of the dose curve; as a rule, active = well fitted cell-killing curve with a large enough effect in the repeat runs; inconclusive = weak or mixed curves; inactive = no such curve, though single readings can be large or run the other way.
measure_name: Potency

>  <molecule>
CC(C)c1nc(CN(C)C(=O)N[C@H](C(=O)N[C@@H](Cc2ccccc2)C[C@H](O)[C@H](Cc2ccccc2)NC(=O)OCc2cncs2)C(C)C)cs1

>  <measure_name>
Potency

>  <result_value>
23.7 µM (active)

$$$$
>  <molecule>
CCCCC(CC)COP(=O)(O)O (configuration not stated)

>  <measure_name>
Potency

>  <result_value>
inactive

$$$$
>  <molecule>
CC(C)COCC(CN(Cc1ccccc1)c1ccccc1)N1CCCC1 (configuration not stated)

>  <measure_name>
Potency

>  <result_value>
7.5 µM (active)

$$$$
>  <molecule>
O=C1c2ccccc2C(=O)c2c(O)c(O)cc(O)c21

>  <measure_name>
Potency

>  <result_value>
48.6 µM (active)

$$$$
>  <molecule>
FC(F)(F)c1ccccc1Cl

>  <measure_name>
Potency

>  <result_value>
inactive

$$$$
>  <molecule>
Cc1ccc(CO)cc1

>  <measure_name>
Potency

>  <result_value>
inactive

$$$$
>  <molecule>
CCC(C)(C)OC

>  <measure_name>
Potency

>  <result_value>
inactive

$$$$
>  <molecule>
COc1ncnc(NS(=O)(=O)c2ccc(N)cc2)c1OC

>  <measure_name>
Potency

>  <result_value>
inactive

$$$$
>  <molecule>
CCOc1ccccc1O[C@H](c1ccccc1)[C@H]1CNCCO1

>  <measure_name>
Potency

>  <result_value>
13.3 µM (active)

$$$$
>  <molecule>
CCC(OCCCOC)OC(C)=O (configuration not stated)

>  <measure_name>
Potency

>  <result_value>
inactive

$$$$
>  <molecule>
CCCCCCCC/C=C\CCCCCCCCO

>  <measure_name>
Potency

>  <result_value>
inactive

$$$$
>  <molecule>
O=C(/C=C/c1ccccc1)OCCc1ccccc1

>  <measure_name>
Potency

>  <result_value>
inactive

$$$$
